Provenance of the data: patent US6846625B1

# Tested On: E. coli prolyl-tRNA synthetase (ProRS) (Escherichia coli) (UniProt P16659)
# Sequence (P16659 whole entry, the tested form may be a part): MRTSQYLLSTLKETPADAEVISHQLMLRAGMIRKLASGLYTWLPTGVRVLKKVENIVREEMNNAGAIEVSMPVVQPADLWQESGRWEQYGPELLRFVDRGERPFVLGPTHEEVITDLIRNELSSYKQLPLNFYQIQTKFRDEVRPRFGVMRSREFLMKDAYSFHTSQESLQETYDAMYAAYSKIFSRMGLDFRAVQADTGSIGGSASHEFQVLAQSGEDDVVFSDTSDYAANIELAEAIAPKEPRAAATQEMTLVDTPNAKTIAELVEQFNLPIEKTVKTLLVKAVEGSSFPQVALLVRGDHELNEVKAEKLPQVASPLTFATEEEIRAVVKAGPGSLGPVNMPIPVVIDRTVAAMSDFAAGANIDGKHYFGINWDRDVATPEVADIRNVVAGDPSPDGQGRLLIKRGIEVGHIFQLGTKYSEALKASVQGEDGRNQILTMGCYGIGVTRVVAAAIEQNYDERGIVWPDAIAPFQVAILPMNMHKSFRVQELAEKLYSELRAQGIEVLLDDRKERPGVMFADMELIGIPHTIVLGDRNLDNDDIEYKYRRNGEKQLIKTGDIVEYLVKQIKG
# Experiment Summary: inhibition of ProRS enzyme activity, purified fusion protein
pKi: −log10 of the molar value.

Binder | pKi
SREWHFWRDYNPTSREGGG [Pro-3/GST fusion protein] | 6.74
